# ASSAYED_SYSTEM: UniProtKB P04585
# ASSAY_METHOD_TEXT: Fluorescence (FRET)-based RNase H activity assay of HIV reverse transcriptase
# Type: biochemical, HIV-1
# Parameters: final concentration of 2.5 nM of the p51/p66 RT heterodimer in the assay; made in house
# EXPERIMENTAL_SETUP: 10 μM inhibitor concentration; activity with analog / without analog x 100
The following compounds are shown together with reported Residual activity (%) RNase H values.
State the result as a value with its unit after it.

Example cases with answers are listed next.
>  <COMPOUND>
CCCCCCc1c2c(nc3ccccc13)-c1cc(C(O)Cc3ccccc3)c(C)c(=O)n1C2 (racemic)

>  <RESULT>
71%

$$$$
>  <COMPOUND>
Cc1c(C(O)Cc2ccccc2)cc2n(c1=O)Cc1c-2nc2ccc(F)cc2c1-c1ccccc1 (racemic)

>  <RESULT>
91%

$$$$
>  <COMPOUND>
CCC(O)c1cc2n(c(=O)c1C)Cc1c-2nc2ccc(F)cc2c1-c1ccccc1 (racemic)

>  <RESULT>
83%

$$$$
>  <COMPOUND>
CCC(=O)c1cc2n(c(=O)c1C)Cc1c-2nc2ccc(F)cc2c1[Si](C)(C)C(C)(C)C

>  <RESULT>
77%

$$$$
>  <COMPOUND>
Cc1c(C(O)Cc2ccccc2)cc2n(c1=O)Cc1c-2nc2ccccc2c1-c1ccccc1 (stereo not drawn)

>  <RESULT>
99%

$$$$
>  <COMPOUND>
Cc1ccc2nc3c(c([Si](C)(C)C(C)(C)C)c2c1)Cn1c-3cc(C(=O)C(C)(C)C)c(C)c1=O

>  <RESULT>
65%

$$$$
>  <COMPOUND>
Cc1c(C(=O)CCC2CCCCC2)cc2n(c1=O)Cc1c-2nc2ccc(F)cc2c1-c1ccccc1

>  <RESULT>
93%

$$$$
>  <COMPOUND>
CCCCCCc1c2c(nc3ccc(C)cc13)-c1cc(C(=O)C(C)(C)C)c(C)c(=O)n1C2

>  <RESULT>
95%

$$$$
>  <COMPOUND>
Cc1ccc2nc3c(c(-c4ccccc4)c2c1)Cn1c-3cc(C(O)C(C)(C)C)c(C)c1=O (racemic)

>  <RESULT>
84%

$$$$
>  <COMPOUND>
Cc1ccc2nc3c(c(-c4ccccc4)c2c1)Cn1c-3cc(C(O)Cc2ccccc2)c(C)c1=O (racemic)

>  <RESULT>
101%

$$$$

Ask: Which measured Residual activity (%) RNase H value corresponds to Cc1c(C(=O)CCC2CCCCC2)cc2n(c1=O)Cc1c-2nc2ccc(F)cc2c1[Si](C)(C)C ?
Reply: 78%

Ask: Which measured Residual activity (%) RNase H value corresponds to CCCCCCc1c2c(nc3ccc(OC)cc13)-c1cc(C(O)C(C)(C)C)c(C)c(=O)n1C2 (racemic) ?
Reply: 67%

###

The following compounds are shown together with reported Residual activity (%) RNase H values.
# ASSAYED_SYSTEM: RNase H activity of HIV reverse transcriptase (Human immunodeficiency virus type 1 group M subtype B, UniProt P04585)
# ASSAY_METHOD_TEXT: Fluorescence (FRET)-based RNase H activity assay of HIV reverse transcriptase
# Type: biochemical, HIV-1
# Parameters: final concentration of 2.5 nM of the p51/p66 RT heterodimer in the assay; made in house
# EXPERIMENTAL_SETUP: 10 μM inhibitor concentration; activity with analog / without analog x 100
All answers are understood in %, so give the number only.

>  <COMPOUND>
CCC(=O)c1cc2n(c(=O)c1C)Cc1c-2nc2ccccc2c1[Si](C)(C)C(C)(C)C

>  <Residual activity (%) RNase H>
76

$$$$
>  <COMPOUND>
CCC(O)c1cc2n(c(=O)c1C)Cc1c-2nc2ccc(C)cc2c1-c1ccccc1 (racemic)

>  <Residual activity (%) RNase H>
96

$$$$
>  <COMPOUND>
COc1ccc2nc3c(c([Si](C)(C)C(C)(C)C)c2c1)Cn1c-3cc(C(O)C(C)(C)C)c(C)c1=O (racemic)

>  <Residual activity (%) RNase H>
91

$$$$
>  <COMPOUND>
Cc1c(C(O)Cc2ccccc2)cc2n(c1=O)Cc1c-2nc2ccccc2c1[Si](C)(C)C(C)(C)C (racemic)

>  <Residual activity (%) RNase H>
93

$$$$
>  <COMPOUND>
CCC(=O)c1cc2n(c(=O)c1C)Cc1c-2nc2ccc(F)cc2c1[Si](C)(C)C

>  <Residual activity (%) RNase H>
89

$$$$
>  <COMPOUND>
CCCCCCc1c2c(nc3ccc(OC)cc13)-c1cc(C(=O)CCC3CCCCC3)c(C)c(=O)n1C2

>  <Residual activity (%) RNase H>
90

$$$$

API: the following record is the query input.
Ask: Which measured Residual activity (%) RNase H value corresponds to CCC(O)c1cc2n(c(=O)c1C)Cc1c-2nc2ccc(C)cc2c1[Si](C)(C)C (centres unmarked) ?
Reply: 62

###

# ASSAYED_SYSTEM: RNA-dependent DNA polymerase activity of HIV reverse transcriptase (Human immunodeficiency virus type 1 group M subtype B, UniProt P04585)
# Construct: made in house
# ASSAY_METHOD_TEXT: RNA-dependent DNA polymerase activity assay of HIV reverse transcriptase
# Format: biochemical, HIV-1
# EXPERIMENTAL_SETUP: 10 μM inhibitor concentration; activity with analog / without analog x 100
The following compounds are shown together with reported Residual activity (%) Polymerase values.

>  <COMPOUND>
Cc1ccc2nc3c(c([Si](C)(C)C(C)(C)C)c2c1)Cn1c-3cc(C(O)CCC2CCCCC2)c(C)c1=O (racemic)

>  <Residual activity (%) Polymerase>
61%

$$$$
>  <COMPOUND>
Cc1c(C(O)Cc2ccccc2)cc2n(c1=O)Cc1c-2nc2ccc(F)cc2c1[Si](C)(C)C(C)(C)C (stereo not drawn)

>  <Residual activity (%) Polymerase>
61%

$$$$

API: the following record is the query input.
Ask: Which measured Residual activity (%) Polymerase value corresponds to Cc1ccc2nc3c(c([Si](C)(C)C)c2c1)Cn1c-3cc(C(=O)CCC2CCCCC2)c(C)c1=O ?
Reply: 59%

###

# ASSAYED_SYSTEM: RNase H activity of HIV reverse transcriptase (Human immunodeficiency virus type 1 group M subtype B, UniProt P04585)
# ASSAY_METHOD_TEXT: Fluorescence (FRET)-based RNase H activity assay of HIV reverse transcriptase
# Type: biochemical, HIV-1
# Design: final concentration of 2.5 nM of the p51/p66 RT heterodimer in the assay; made in house
# EXPERIMENTAL_SETUP: 10 μM inhibitor concentration; activity with analog / without analog x 100
# From the text: Recently, a fluorescence-based assay to perform preliminary screens in search of HIV RNase H inhibitors has been developed. […] The assay for RNase H activity of HIV reverse transcriptase was the fluorescence-based assay described in detail in the Experimental section and discussed in U.S. Provisional Patent Application Serial No. 60/318,359. […] Assay for Ribonuclease H Activity Based on Fluorescence Resonance Energy Transfer (FRET) […]
PROPERTY_NAME: Residual activity (%) RNase H
All answers are understood in %, so give the number only.

Example cases with answers are listed next.
>  <COMPOUND>
Cc1ccc2nc3c(c(-c4ccccc4)c2c1)Cn1c-3cc(C(=O)C(C)(C)C)c(C)c1=O

>  <RESULT_UNITS>
%

>  <Residual activity (%) RNase H>
96

$$$$
>  <COMPOUND>
Cc1c(C(O)Cc2ccccc2)cc2n(c1=O)Cc1c-2nc2ccc(F)cc2c1[Si](C)(C)C (stereo not shown)

>  <RESULT_UNITS>
%

>  <Residual activity (%) RNase H>
88

$$$$
>  <COMPOUND>
COc1ccc2nc3c(c([Si](C)(C)C(C)(C)C)c2c1)Cn1c-3cc(C(O)Cc2ccccc2)c(C)c1=O (racemic)

>  <RESULT_UNITS>
%

>  <Residual activity (%) RNase H>
76

$$$$
>  <COMPOUND>
CCCCCCc1c2c(nc3ccc(OC)cc13)-c1cc(C(O)Cc3ccccc3)c(C)c(=O)n1C2 (stereo not shown)

>  <RESULT_UNITS>
%

>  <Residual activity (%) RNase H>
82

$$$$
>  <COMPOUND>
CCCCCCc1c2c(nc3ccccc13)-c1cc(C(=O)C(C)(C)C)c(C)c(=O)n1C2

>  <RESULT_UNITS>
%

>  <Residual activity (%) RNase H>
96

$$$$
>  <COMPOUND>
Cc1ccc2nc3c(c([Si](C)(C)C)c2c1)Cn1c-3cc(C(O)CCC2CCCCC2)c(C)c1=O (racemic)

>  <RESULT_UNITS>
%

>  <Residual activity (%) RNase H>
103

$$$$
>  <COMPOUND>
Cc1c(C(O)CCC2CCCCC2)cc2n(c1=O)Cc1c-2nc2ccc(F)cc2c1[Si](C)(C)C(C)(C)C (stereo not shown)

>  <RESULT_UNITS>
%

>  <Residual activity (%) RNase H>
90

$$$$
>  <COMPOUND>
CCC(O)c1cc2n(c(=O)c1C)Cc1c-2nc2ccc(OC)cc2c1-c1ccccc1 (racemic)

>  <RESULT_UNITS>
%

>  <Residual activity (%) RNase H>
78

$$$$

Ask: Which measured Residual activity (%) RNase H value corresponds to CCCCCCc1c2c(nc3ccc(F)cc13)-c1cc(C(O)Cc3ccccc3)c(C)c(=O)n1C2 (racemic) ?
Reply: 84

Ask: Which measured Residual activity (%) RNase H value corresponds to CCCCCCc1c2c(nc3ccccc13)-c1cc(C(O)CC)c(C)c(=O)n1C2 (racemic) ?
Reply: 83
